tested on: UACC-62; assay: NCI tumour cell line growth inhibition, 48 h
Activity calls are given as the source filed them. Cut-off read from the data, not from the text of the source: active = GI50 up to about 1.1 µM and inactive = higher.
measure-name: GI50

Item O=C(NNC(=O)c1ccco1)c1ccco1 : provide GI50
> 100 µM (inactive)

Item O=C(Nn1cc(F)c(=O)[nH]c1=O)C12CC3CC(CC(C3)C1)C2 : provide GI50
7.59 µM (inactive)

Item c1ccc(-c2c[nH]c(SC(c3ccccc3)c3ccccc3)n2)cc1 : provide GI50
14.2 µM (inactive)

---

tested on: HCT-15; test: NCI tumour cell line growth inhibition, 48 h
Hi! Could you tag entries with GI50 below 10 µM as fulfilled, and those at or above as not fulfilled? Much appreciated.

compound	experimental-system	qualitative-label
COC(=O)C1=C(C[S+]([O-])c2ccc([N+](=O)[O-])cc2[N+](=O)[O-])ON(C)C1c1ccccc1 (centres undefined)	HCT-15	not fulfilled
c1ccc(-c2c[nH]c(SC(c3ccccc3)c3ccccc3)n2)cc1	HCT-15	not fulfilled
C=C(C)[C@@H]1CC[C@]2(C(=O)OC3OC(COC4OC(CO)C(OC5OC(C)C(O)C(O)C5O)C(O)C4O)C(O)C(O)C3O)CC[C@]3(C)[C@H](CC[C@@H]4[C@@]5(C)CC[C@H](O)[C@@](C)(CO)[C@@H]5CC[C@]43C)[C@@H]12 (some centres undefined)	HCT-15	fulfilled

Strictly below 10 µM: is that where GI50 of COc1cc(Br)c(/C=N\c2cccc3ccc(OS(=O)(=O)c4ccc([N+](=O)[O-])cc4)cc23)cc1OC sits?
not fulfilled

Strictly below 10 µM: is that where GI50 of Cc1cccc(NC(=O)CC2C(=O)Nc3ccccc3S2(=O)=O)c1C (centres undefined) sits?
not fulfilled

Strictly below 10 µM: is that where GI50 of CC(Cl)(CCC(Cl)C(C)(C)Cl)C(=O)CBr (centres undefined) sits?
fulfilled

Strictly below 10 µM: is that where GI50 of Cn1c2ccccc2n2c(=O)c(-c3ccc(Cl)cc3)nnc12 sits?
not fulfilled

Strictly below 10 µM: is that where GI50 of CCN(CC)c1ccc2cc(-c3nc(O)c4ccccc4n3)c(=N)oc2c1 sits?
not fulfilled

---

tested on: M14; assay: NCI tumour cell line growth inhibition, 48 h
The source made the active and inactive calls. Rule as the data show it: active = GI50 up to about 1.1 µM and inactive = higher.
measure-name: GI50

molecule	GI50
C[C@H](C1CC(C)(O)C(C)(O)C(O)O1)[C@H]1CC[C@H]2[C@@H]3[C@@H]4O[C@@H]4[C@@]4(O)CC=CC(=O)[C@]4(C)[C@H]3CC[C@]12C (stereo not given in full)	> 50 µM (inactive)
CCCc1[nH]nc(C(N)=O)c1/N=N/N(C)C	> 100 µM (inactive)

Item Nc1ncnc2c1ncn2[C@]1(CO)C=C(CO)C(O)C1O (stereo not given in full) : provide GI50
> 100 µM (inactive)

Item COc1c2ccoc2nc2c(OC)c(OCC(O)C(C)(C)O)ccc12 (stereo not given) : provide GI50
> 100 µM (inactive)

Item O=C1/C(=C/c2ccc(Cl)cc2)N=C(c2ccccc2)N1c1nc2c(Cl)cc(Cl)cc2s1 : provide GI50
34.9 µM (inactive)

Item O=C1[C@H]2ON(c3ccccc3)C(c3ccccc3Cl)[C@H]2C(=O)N1c1ccc(Cc2ccc(N3C(=O)[C@@H]4ON(c5ccccc5)C(c5ccccc5Cl)[C@@H]4C3=O)cc2)cc1 (stereo not given in full) : provide GI50
21.7 µM (inactive)

Item CC1(C)OC2COC3([C@@H]4OC(C)(C)O[C@@H]4CO)OC(C)(C)OC3C2O1 (stereo not given in full) : provide GI50
> 100 µM (inactive)

Item Clc1ccc(CSCc2ccc(Cl)cc2Cl)c(Cl)c1 : provide GI50
79.8 µM (inactive)

Item COC(=O)c1ccccc1Nc1ccccc1C(=O)OC : provide GI50
> 100 µM (inactive)

Item CC(C)(Cc1ccccc1)Cc1cc(O)ccc1O : provide GI50
17.6 µM (inactive)

Item COC1=C[C@]2(CCC(=O)O2)[C@@H]2Cc3ccccc3[C@H](O)[C@@H]2C1=O : provide GI50
> 100 µM (inactive)

Item CC12O[C@H](c3ccccc3)[C@H](c3ccccc3)N1C(=O)C1(C(=O)OCc3ccccc3)CC12 (stereo not given in full) : provide GI50
64.7 µM (inactive)

Item O=C(Nc1cccc(C(F)(F)F)c1)C(=O)C1NC(=S)NC1=O (stereo not given) : provide GI50
> 100 µM (inactive)

---

system: SK-MEL-5; assay: NCI tumour cell line growth inhibition, 48 h
Calls of active or inactive are those of the source. Cut-off read from the data, not from the text of the source: active = GI50 up to about 1.1 µM and inactive = higher.
measure-name: GI50

// known answers, use as guide
> print(dat)
                                    molecule  measure.name              reading
 1  O=S(=O)(O)c1ccc2c(/N=N\c3cccc4ccccc34)c(O)c(S(=O)(=O)O)cc2c1          GI50  > 100 µM (inactive)
 2  N#CC1(C#N)N[C@@H](c2ccsc2)[C@H]2C(=O)N(c3ccccc3)C(=O)[C@H]21          GI50   35.4 µM (inactive)
 3         Clc1ccc(CSCc2ccc(Cl)cc2Cl)c(Cl)c1          GI50   29.9 µM (inactive)
 4  CC(C)(N)C(=O)N[C@@H]1C(=O)N2[C@@H]1SC(C)(C)[C@@H]2C(=O)O          GI50  > 100 µM (inactive)
 5  CCN1C[C@]2(C)CC[C@H](O)C34C1C(C[C@@H]32)[C@@]1(O)CC[C@H]2C[C@@H]4[C@@H]1[C@H]2O          GI50  > 100 µM (inactive)
 6  Cc1cc(C)c2c(n1)S(=O)(=O)N(CCCN1CCN(c3cccc(Cl)c3)CC1)C(C(=O)c1ccc(Br)cc1)=C2O          GI50   15.4 µM (inactive)
 7  CCOc1ccccc1/N=N/c1ccc2oc(=O)c(C(=O)Nc3cccc(C)c3)cc2c1          GI50   15.1 µM (inactive)
 8  O=C(NNC(=O)/C(=C/c1cccc([N+](=O)[O-])c1)NC(=O)c1ccccc1)Nc1ccc(Cl)cc1          GI50   13.1 µM (inactive)
 9  C=CC[C@@]1(C)CCCCCCCCC[C@@](C)(CC=C)C1=O          GI50     16 µM (inactive)
10  NC(Cc1c2ccccc2cc2ccccc12)C(=O)O (stereo unspecified)          GI50   47.4 µM (inactive)

Field: next molecule
Item COc1cc2c(c(OC)c1)C(=O)O[C@H](C)CCCC/C=C/C2 : provide GI50
5.71 µM (inactive)

---

We begin with a simple list: items and their reported GI50.
test system: 786-0; assay: NCI tumour cell line growth inhibition, 48 h
Calls of active or inactive are those of the source. Rule as the data show it: active = GI50 up to about 1.1 µM and inactive = higher.

// known answers, use as guide
> print(dat)
                                   compound              reading
1  CC(C)(C)c1ccc(-c2nc3ccc([N+](=O)[O-])cc3c(=O)o2)cc1   26.8 µM (inactive)
2  CC1=NN(c2ccccc2)C(=O)/C1=C1\SC(c2ccccc2)(c2ccccc2)c2ccccc21  > 100 µM (inactive)

Quote GI50 with test system 786-0 for COC(=O)CC[C@]12C[C@]13CC[C@]1(C)C4C(C)C[C@]5(CC(C)C(=O)O5)OC4CC1(C)C3CCC2C(C)(C)O (stereo not given in full)
> 100 µM (inactive)

Quote GI50 with test system 786-0 for [O-][Cl+3]([O-])([O-])[O-].c1ccc(C[P+]2(c3ccccc3)CCCCC2)cc1
> 100 µM (inactive)

Quote GI50 with test system 786-0 for O=c1[nH]c2ccc(CC(=S)N3CCN(c4ccccc4)CC3)cc2o1
> 90.2 µM (inactive)

---

test system: RPMI-8226; test: NCI tumour cell line growth inhibition, 48 h
Activity calls are given as the source filed them. No stated cut-off is given here; in the data, active = GI50 up to about 1.1 µM and inactive = higher. Residues, ends and D or L forms follow the SMILES beside them. *: point of attachment. Ethyl(2-NMe3+) = C[N+](C)(C)CC*; Boc = CC(C)(C)OC(=O)*
Choose the fitting class; nothing outside active, inactive is accepted.

Illustrative cases are given below, each with its answer.
compound	experimental-system	qualitative-label
O=[N+]([O-])c1ccccc1/C=N/C12CC3CC(CC(C3)C1)C2	RPMI-8226	inactive
C[C@]12C=CC(=O)C=C1[C@@H](F)C[C@H]1[C@@H]3CC[C@](O)(C(=O)CO)[C@@]3(C)C[C@H](O)[C@@]12F	RPMI-8226	inactive
O/N=C1/CCC/C1=C\c1ccccc1	RPMI-8226	inactive
CCOC(=O)[C@@H]1ON2OC(OC3CCCC3(c3ccccc3)c3ccccc3)C(OC(C)=O)[C@H]3OC(=O)[C@@H]1C32 (stereo partly specified)	RPMI-8226	inactive
O=S(=O)(/N=C(\NO)Nc1ccc(Cl)cc1)C1CC=C(c2ccon2)S1 (stereo unspecified)	RPMI-8226	inactive
COc1c2ccoc2nc2c(OC)c(OCC(O)C(C)(C)O)ccc12 (stereo unspecified) [EVOXINE]	RPMI-8226	inactive
C(=C\c1ccccc1)/C=N/c1nc2cc3sc(/N=C/C=C/c4ccccc4)nc3cc2s1	RPMI-8226	inactive
ClC(Cl)(Cl)C1=N[C@H]2[C@H](Br)[C@@H]3O[C@@H](c4ccccc4)[C@H](c4ccccc4)O[C@@H]3[C@H]2O1	RPMI-8226	inactive
CCCCCC/C=C1\CCC(CN2CCCC2)C1=O (stereo unspecified)	RPMI-8226	inactive
O=c1oc2ccc3ccccc3c2cc1-c1nc2ccc([N+](=O)[O-])cc2o1	RPMI-8226	inactive

Dear colleague, could you share the recorded outcome for N/N=C1\c2ccccc2C2/C(=N\N)c3ccccc3C12 (stereo unspecified) when you have a moment?
inactive

Dear colleague, could you share the recorded outcome for CC(c1ccccc1)/[N+]([O-])=C/c1ccccc1 (stereo unspecified) when you have a moment?
inactive

Dear colleague, could you share the recorded outcome for c1ccc2c(c1)NC1(N3CCCCC3)CCCCC21 (stereo unspecified) when you have a moment?
inactive

Dear colleague, could you share the recorded outcome for CC(NC(=O)C(Cc1ccc(OCC[N+](C)(C)C)cc1)NC(=O)OC(C)(C)C)C(=O)NC(Cc1ccccc1)C(=O)NCC(N)=O (stereo unspecified) (Boc-Y(Ethyl(2-NMe3+))AFG-NH2; configuration not given here) when you have a moment?
inactive

Dear colleague, could you share the recorded outcome for COC(=O)[C@]12CCC(C)(C)C[C@H]1[C@H]1C(=O)C=C3[C@@]4(C)C=C(C#N)C(=O)C(C)(C)[C@@H]4CC[C@@]3(C)[C@]1(C)CC2 [BARDOXOLONE METHYL] when you have a moment?
active

Dear colleague, could you share the recorded outcome for CN1C(=O)CN(NC(=O)C2=C(O)c3ccc(Br)cc3S(=O)(=O)N2)C1=S when you have a moment?
inactive

Dear colleague, could you share the recorded outcome for CCOC(=N)/C(=C1\OC(=N)C(c2ccc(Cl)cc2)=C1O)c1ccc(Cl)cc1 when you have a moment?
inactive

Dear colleague, could you share the recorded outcome for Nc1ccn(C2OC(CO)C(O)C2(F)F)c(=O)n1 (stereo unspecified) when you have a moment?
active

Dear colleague, could you share the recorded outcome for O=C1CCCCC/C1=C\c1ccc(F)cc1 when you have a moment?
inactive

Dear colleague, could you share the recorded outcome for COc1ccc(C2S/C(=C\c3cccc(O)c3)C(=O)N2NC(=O)Cc2ccccc2)cc1 (stereo unspecified) when you have a moment?
inactive

Dear colleague, could you share the recorded outcome for COc1cc2cc(C(=O)N3CC(CCl)c4c3cc(N)c3ccccc43)[nH]c2cc1OCCN(C)C (stereo unspecified) when you have a moment?
active

Data provenance is ChEMBL document CHEMBL1201862.
